As a worked illustration, we turn to IC50 data collected for Histone deacetylase 1 (Homo sapiens).
observed_property: IC50 (µM)

compound: O=C(CCCCC[C@H](NC(=O)[C@@H]1CCCC(=O)N1)C(=O)Nc1ccccc1)NO
observed: 0.025
--
compound: O=C(CCCCC[C@H](NC(=O)[C@@H]1CCCC(=O)N1)C(=O)NCCc1ccccc1)NO
observed: 0.102
--
compound: O=C(CCCCCCC(=O)NC1CCCC1)NO
observed: 1.79
--
compound: O=C(CCCCC[C@H](NC(=O)[C@@H]1CCC(=O)N1)C(=O)Nc1ccccc1)NO
observed: 0.059
--
compound: Cc1cccc(NC(=O)[C@H](CCCCCC(=O)NO)NC(=O)[C@H]2CCC(=O)N2)c1
observed: 0.007
--
compound: O=C(CCCCC[C@H](NC(=O)[C@H]1CCC(=O)N1)C(=O)NCCc1ccccc1)NO
observed: 0.077
--
compound: O=C(CCCCC[C@H](NC(=O)[C@H]1CCC(=O)N1)C(=O)Nc1ccccc1)NO
observed: 0.043
--
compound: O=C(CCCCC[C@H](NC(=O)[C@@H]1CC(=O)N1)C(=O)Nc1ccccc1)NO
observed: 0.034
--
compound: O=C(CCCCC[C@H](NC(=O)C1C(=O)NCC1c1ccccc1)C(=O)Nc1ccccc1)NO (stereo partly drawn)
observed: 0.033
--
compound: Cc1cccc(NC(=O)CCCCCCC(=O)NO)c1
observed: 0.197
--
compound: O=C(CCCCC[C@H](NC(=O)C1CCCNC1=O)C(=O)Nc1ccccc1)NO (stereo partly drawn)
observed: 0.131
--
compound: Cc1ccc(NC(=O)[C@H](CCCCCC(=O)NO)NC(=O)[C@H]2CCC(=O)N2)cc1
observed: 0.032
--
compound: O=C(CCCCC[C@H](NC(=O)C1CCNC1=O)C(=O)Nc1ccccc1)NO (stereo partly drawn)
observed: 0.072
--
compound: O=C(CCCCC[C@H](NC(=O)[C@@H]1CCCC(=O)N1)C(=O)NC1CCCC1)NO
observed: 1.45
--
compound: O=C(CCCCCCC(=O)Nc1cccc(C(F)(F)F)c1)NO
observed: 0.063
--
compound: Cc1ccc(NC(=O)CCCCCCC(=O)NO)cc1
observed: 0.2
--
compound: O=C(CCCCC[C@H](NC(=O)[C@H]1CCC(=O)N1)C(=O)Nc1cccc(C(F)(F)F)c1)NO
observed: 0.002
--
compound: O=C(CCCCCCC(=O)NCCc1ccccc1)NO
observed: 1.14

###

As a worked illustration, we turn to IC50 data collected for UniProt Q969S8.
Sequence (Q969S8 whole entry): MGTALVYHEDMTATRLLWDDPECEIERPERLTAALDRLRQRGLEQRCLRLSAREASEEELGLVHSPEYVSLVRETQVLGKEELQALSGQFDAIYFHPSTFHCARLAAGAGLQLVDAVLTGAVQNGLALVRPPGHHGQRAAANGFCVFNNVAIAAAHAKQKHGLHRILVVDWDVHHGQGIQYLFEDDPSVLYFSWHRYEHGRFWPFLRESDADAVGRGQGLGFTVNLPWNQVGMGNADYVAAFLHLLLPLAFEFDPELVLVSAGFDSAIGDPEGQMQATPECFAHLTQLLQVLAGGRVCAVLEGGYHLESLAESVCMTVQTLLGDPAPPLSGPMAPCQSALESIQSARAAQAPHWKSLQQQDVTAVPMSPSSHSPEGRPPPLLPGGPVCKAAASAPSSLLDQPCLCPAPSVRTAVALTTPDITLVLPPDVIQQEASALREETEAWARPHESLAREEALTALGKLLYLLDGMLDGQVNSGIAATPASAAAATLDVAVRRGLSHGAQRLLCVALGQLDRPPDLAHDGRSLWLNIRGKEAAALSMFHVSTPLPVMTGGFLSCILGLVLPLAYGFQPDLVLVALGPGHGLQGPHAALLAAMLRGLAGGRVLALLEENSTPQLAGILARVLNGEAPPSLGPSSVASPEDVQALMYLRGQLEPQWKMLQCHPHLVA

molecule: O=C(CCCCC[C@H](NC(=O)C1CCCNC1=O)C(=O)Nc1ccccc1)NO (stereo partly drawn)
system: UniProt Q969S8
IC50 (nM): 244
//
molecule: O=C(CCCCC[C@H](NC(=O)[C@@H]1CCCC(=O)N1)C(=O)Nc1ccccc1)NO
system: UniProt Q969S8
IC50 (nM): 51
//
molecule: Cc1cccc(NC(=O)[C@H](CCCCCC(=O)NO)NC(=O)[C@H]2CCC(=O)N2)c1
system: UniProt Q969S8
IC50 (nM): 30.3
//
molecule: O=C(CCCCCCC(=O)NC1CCCC1)NO
system: UniProt Q969S8
IC50 (nM): 4890
//
molecule: Cc1ccc(NC(=O)CCCCCCC(=O)NO)cc1
system: UniProt Q969S8
IC50 (nM): 649
//
molecule: Cc1cccc(NC(=O)CCCCCCC(=O)NO)c1
system: UniProt Q969S8
IC50 (nM): 503
//
molecule: O=C(CCCCC[C@H](NC(=O)[C@@H]1CCCC(=O)N1)C(=O)NC1CCCC1)NO
system: UniProt Q969S8
IC50 (nM): 6830
//
molecule: O=C(CCCCC[C@H](NC(=O)[C@H]1CCC(=O)N1)C(=O)NCCc1ccccc1)NO
system: UniProt Q969S8
IC50 (nM): 210
